Below, each of the compounds is paired with its reported half-life value.
# test: Metabolic stability in human S9 fraction
# Assay type: in vitro ADME
# test conditions: read-out: Half life, t1/2 S9
Just the number in min, nothing appended.

compound	half-life [min]
COc1cc(/C=C/C(=O)/C=C(O)/C=C/c2ccc(O)c(OC)c2)ccc1O [Compound 2, reference compound]	10.1
O=C1/C(=C(O)/C=C/c2ccc(O)cc2)CCC/C1=C\c1ccc(O)cc1	35.2
CC(C)C(N)C(=O)Oc1ccc(/C=C/C(=O)C2CCC/C(=C\c3ccc(OC(=O)C(N)C(C)C)cc3)C2=O)cc1 (centres unmarked)	33.2
COc1ccc(/C=C/C(=O)/C=C(O)/C=C/c2ccc(OC)c(O)c2)cc1O	6.6
CSc1ccc(/C=C/C(=O)/C=C(O)/C=C/c2ccc(SC)cc2)cc1	75.4

Please look up its half-life: COc1ccc(/C=C/C(=O)/C=C(O)/C=C/c2ccc(OC)cc2)cc1
10.9

Please look up its half-life: NCCCCC(N)C(=O)Oc1ccc(/C=C/C(=O)C2CCC/C(=C\c3ccc(OC(=O)C(N)CCCCN)cc3)C2=O)cc1 (centres unmarked)
33.6

Please look up its half-life: NCCCCC(N)C(=O)Oc1ccc(/C=C/C(=O)/C=C(O)/C=C/c2ccc(OC(=O)C(N)CCCCN)cc2)cc1 (centres unmarked)
4.5

These measurements were taken from patent US20120040976A1.
